Assay Text: Systemic exposure to niclosamide (serum) after topical application in healthy volunteers
Type: in vivo
Experimental Setup: human, after topical niclosamide formulations twice daily 7 days and final dose Day 8
Outcome Measure: concentration at 8 day (ng/mL)

                                   compound   val
0  O=C(Nc1ccc([N+](=O)[O-])cc1Cl)c1cc(Cl)ccc1O [Niclosamide, niclosamide]  0.24
